The reported numbers originate from patent US9822130B2.

Below, each of the compounds is paired with its reported EC50 value.
Target: sGC α1/β1 heterodimer stably expressed in CHO-K1 cell line (CHO-K1/sGC) (Homo sapiens, UniProt Q02108+Q02153)
Construct: expressed in transfected cells
Sequence (Q02108 whole entry): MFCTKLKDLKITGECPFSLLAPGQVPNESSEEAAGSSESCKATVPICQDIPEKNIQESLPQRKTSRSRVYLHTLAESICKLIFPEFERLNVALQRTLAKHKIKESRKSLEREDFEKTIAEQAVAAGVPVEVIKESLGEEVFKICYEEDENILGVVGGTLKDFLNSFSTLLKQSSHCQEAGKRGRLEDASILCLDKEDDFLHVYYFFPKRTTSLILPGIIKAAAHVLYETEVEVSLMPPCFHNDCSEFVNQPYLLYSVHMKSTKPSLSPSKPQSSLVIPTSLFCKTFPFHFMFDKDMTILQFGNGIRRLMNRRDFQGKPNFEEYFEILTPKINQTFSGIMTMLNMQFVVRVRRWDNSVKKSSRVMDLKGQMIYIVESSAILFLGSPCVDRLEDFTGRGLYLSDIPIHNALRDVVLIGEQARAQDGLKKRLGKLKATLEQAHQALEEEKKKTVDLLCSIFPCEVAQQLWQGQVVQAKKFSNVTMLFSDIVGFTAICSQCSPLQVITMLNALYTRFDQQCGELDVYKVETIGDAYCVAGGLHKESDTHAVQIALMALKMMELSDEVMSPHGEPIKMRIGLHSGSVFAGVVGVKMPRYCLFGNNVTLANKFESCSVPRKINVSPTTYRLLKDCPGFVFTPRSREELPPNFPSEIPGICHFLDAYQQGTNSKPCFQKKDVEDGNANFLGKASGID
Sequence (Q02153 whole entry): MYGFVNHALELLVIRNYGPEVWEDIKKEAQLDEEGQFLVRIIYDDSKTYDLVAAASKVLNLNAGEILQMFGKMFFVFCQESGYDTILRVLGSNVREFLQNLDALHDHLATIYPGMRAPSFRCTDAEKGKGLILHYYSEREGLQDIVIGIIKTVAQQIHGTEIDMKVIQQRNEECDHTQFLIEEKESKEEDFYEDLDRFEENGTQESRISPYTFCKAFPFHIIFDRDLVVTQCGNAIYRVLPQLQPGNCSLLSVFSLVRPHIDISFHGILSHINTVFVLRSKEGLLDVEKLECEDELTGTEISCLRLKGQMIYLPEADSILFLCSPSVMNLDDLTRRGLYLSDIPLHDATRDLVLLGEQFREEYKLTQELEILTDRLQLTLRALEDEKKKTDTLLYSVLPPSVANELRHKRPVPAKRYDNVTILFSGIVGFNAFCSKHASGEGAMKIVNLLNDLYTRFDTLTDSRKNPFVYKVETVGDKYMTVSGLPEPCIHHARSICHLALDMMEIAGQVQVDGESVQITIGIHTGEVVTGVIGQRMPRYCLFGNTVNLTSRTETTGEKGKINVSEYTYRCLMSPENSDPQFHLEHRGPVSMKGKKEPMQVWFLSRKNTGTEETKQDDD
Test: Cell-based sGC Functional Assay (CASA Assay), cGMP generation
Settings: CHO-K1/sGC cells, 1 hr at 37° C., cGMP by HTRF, 4P fit; presence or absence of 1 μM DETA-NO not given; read-out: IP (nM) (inflection point)
Please give a number only; it is taken to be in nM.

Compound	EC50 [nM]
CCCc1nc(-c2nc(O)c3c(n2)NC(=O)[C@@]3(C)c2ccc(F)cc2)cn2ncnc12 [Example 165A]	1520

Prompt line: Respond only with EC50 recorded for CCCCc1nc(-c2nc(N)c3c(n2)NC(=O)C3(C)c2ccc(C)cn2)cn2ncnc12 (stereo not shown) [Example 71B]
Response line: 5.5

Prompt line: Read off the recorded EC50 for N#Cc1ccc(C2(C3CC3)C(=O)Nc3nc(-c4cn5ncnc5c(CCCC(F)(F)F)n4)nc(N)c32)nc1 (stereo not shown) [Example 117A]
Response line: 49.2

Prompt line: Please give measured EC50 of the following entry: CC1(c2cnc(C(F)(F)F)cn2)C(=O)Nc2nc(-c3cn4ncnc4c(CCCC(F)(F)F)n3)nc(N)c21 (stereo not shown) [Example 50B]
Response line: 150

Prompt line: Tell me EC50 reported for Nc1nc(-c2cn3ncnc3c(CCC(F)(F)C(F)(F)F)n2)nc2c1C(c1ccc(F)c(F)c1)(C1CC1)C(=O)N2 (stereo not shown)
Response line: 27

Prompt line: Supply EC50 value. Item: O=C1Nc2nc(-c3cn4ncnc4c(CCCC(F)(F)F)n3)nc(O)c2C1(c1ccc(C(F)(F)F)cc1)C1CC1 (stereo not shown) [Example 144A]
Response line: 1300

Prompt line: Query EC50 for Cc1nc2c(Cc3ccc(F)cc3)nc(-c3nc(N)c4c(n3)NC(=O)[C@@]4(C)c3ccc(F)cc3)cn2n1 [Example 87B]
Response line: 80.2
